System: Streptococcus pneumoniae
TEST SUMMARY: Antibacterial activity against erythromycin-susceptible Streptococcus pneumoniae ATCC 49619 by broth microdilution method
Assay type: functional
MIC overview

[
  {
    "MOL SMILES": "CC[C@H]1OC(=O)[C@H](C)[C@@H](O[C@H]2C[C@@](C)(OC)[C@@H](OC(=O)NNC(=O)c3ccc4[nH]c(-c5cccc(Cl)c5O)nc4c3)[C@H](C)O2)[C@H](C)[C@@H](O[C@@H]2O[C@H](C)C[C@H](N(C)C)[C@H]2O)[C@](C)(OC)C[C@@H](C)C(=O)[C@H](C)[C@@H](O)[C@]1(C)O",
    "SYSTEM": "Streptococcus pneumoniae",
    "MIC / µg/mL": 0.03
  },
  {
    "MOL SMILES": "CC[C@H]1OC(=O)[C@H](C)[C@@H](O[C@H]2C[C@@](C)(OC)[C@@H](OC(=O)NNC(=O)c3ccc4[nH]c(C)nc4c3)[C@H](C)O2)[C@H](C)[C@@H](O[C@@H]2O[C@H](C)C[C@H](N(C)C)[C@H]2O)[C@](C)(OC)C[C@@H](C)C(=O)[C@H](C)[C@@H](O)[C@]1(C)O",
    "SYSTEM": "Streptococcus pneumoniae",
    "MIC / µg/mL": 0.12
  }
]

###

Test system: Staphylococcus aureus
TEST SUMMARY: Antibacterial activity against erythromycin-susceptible Staphylococcus aureus ATCC 25923 by broth microdilution method
Assay type: functional
List of MIC values.
METRIC NAME: MIC (µg/mL)

[
  {
    "MOL SMILES": "CC[C@H]1OC(=O)[C@H](C)[C@@H](O[C@H]2C[C@@](C)(OC)[C@@H](OC(=O)NNC(=O)c3ccc4[nH]cnc4c3)[C@H](C)O2)[C@H](C)[C@@H](O[C@@H]2O[C@H](C)C[C@H](N(C)C)[C@H]2O)[C@](C)(OC)C[C@@H](C)C(=O)[C@H](C)[C@@H](O)[C@]1(C)O",
    "METRIC NAME": "MIC",
    "MEAS VALUE": 0.5
  },
  {
    "MOL SMILES": "CC[C@H]1OC(=O)[C@H](C)[C@@H](O[C@H]2C[C@@](C)(OC)[C@@H](OC(=O)NNC(=O)c3ccc4[nH]c(-c5cccc([N+](=O)[O-])c5)nc4c3)[C@H](C)O2)[C@H](C)[C@@H](O[C@@H]2O[C@H](C)C[C@H](N(C)C)[C@H]2O)[C@](C)(OC)C[C@@H](C)C(=O)[C@H](C)[C@@H](O)[C@]1(C)O",
    "METRIC NAME": "MIC",
    "MEAS VALUE": 0.5
  },
  {
    "MOL SMILES": "CC[C@H]1OC(=O)[C@H](C)[C@@H](O[C@H]2C[C@@](C)(OC)[C@@H](OC(=O)NNC(=O)c3ccc4[nH]c(C)nc4c3)[C@H](C)O2)[C@H](C)[C@@H](O[C@@H]2O[C@H](C)C[C@H](N(C)C)[C@H]2O)[C@](C)(OC)C[C@@H](C)C(=O)[C@H](C)[C@@H](O)[C@]1(C)O",
    "METRIC NAME": "MIC",
    "MEAS VALUE": 0.5
  },
  {
    "MOL SMILES": "CC[C@H]1OC(=O)[C@H](C)[C@@H](O[C@H]2C[C@@](C)(OC)[C@@H](OC(=O)NNC(=O)c3ccc4[nH]c(-c5ccc(C(F)(F)F)cc5)nc4c3)[C@H](C)O2)[C@H](C)[C@@H](O[C@@H]2O[C@H](C)C[C@H](N(C)C)[C@H]2O)[C@](C)(OC)C[C@@H](C)C(=O)[C@H](C)[C@@H](O)[C@]1(C)O",
    "METRIC NAME": "MIC",
    "MEAS VALUE": 0.5
  },
  {
    "MOL SMILES": "CCc1nc2cc(C(=O)NNC(=O)O[C@H]3[C@H](C)O[C@@H](O[C@H]4[C@H](C)[C@@H](O[C@@H]5O[C@H](C)C[C@H](N(C)C)[C@H]5O)[C@](C)(OC)C[C@@H](C)C(=O)[C@H](C)[C@@H](O)[C@](C)(O)[C@@H](CC)OC(=O)[C@@H]4C)C[C@@]3(C)OC)ccc2[nH]1",
    "METRIC NAME": "MIC",
    "MEAS VALUE": 0.5
  },
  {
    "MOL SMILES": "CC[C@H]1OC(=O)[C@H](C)[C@@H](O[C@H]2C[C@@](C)(OC)[C@@H](OC(=O)NNC(=O)c3ccc4[nH]c(-c5ccccc5OC)nc4c3)[C@H](C)O2)[C@H](C)[C@@H](O[C@@H]2O[C@H](C)C[C@H](N(C)C)[C@H]2O)[C@](C)(OC)C[C@@H](C)C(=O)[C@H](C)[C@@H](O)[C@]1(C)O",
    "METRIC NAME": "MIC",
    "MEAS VALUE": 0.03
  },
  {
    "MOL SMILES": "CC[C@H]1OC(=O)[C@H](C)[C@@H](O[C@H]2C[C@@](C)(OC)[C@@H](OC(=O)NNC(=O)c3ccc4[nH]c(-c5ccc(Cl)cc5)nc4c3)[C@H](C)O2)[C@H](C)[C@@H](O[C@@H]2O[C@H](C)C[C@H](N(C)C)[C@H]2O)[C@](C)(OC)C[C@@H](C)C(=O)[C@H](C)[C@@H](O)[C@]1(C)O",
    "METRIC NAME": "MIC",
    "MEAS VALUE": 0.5
  },
  {
    "MOL SMILES": "CCCc1nc2cc(C(=O)NNC(=O)O[C@H]3[C@H](C)O[C@@H](O[C@H]4[C@H](C)[C@@H](O[C@@H]5O[C@H](C)C[C@H](N(C)C)[C@H]5O)[C@](C)(OC)C[C@@H](C)C(=O)[C@H](C)[C@@H](O)[C@](C)(O)[C@@H](CC)OC(=O)[C@@H]4C)C[C@@]3(C)OC)ccc2[nH]1",
    "METRIC NAME": "MIC",
    "MEAS VALUE": 0.25
  },
  {
    "MOL SMILES": "CC[C@H]1OC(=O)[C@H](C)[C@@H](O[C@H]2C[C@@](C)(OC)[C@@H](OC(=O)NNC(=O)c3ccc4[nH]c(-c5cccc(OC)c5)nc4c3)[C@H](C)O2)[C@H](C)[C@@H](O[C@@H]2O[C@H](C)C[C@H](N(C)C)[C@H]2O)[C@](C)(OC)C[C@@H](C)C(=O)[C@H](C)[C@@H](O)[C@]1(C)O",
    "METRIC NAME": "MIC",
    "MEAS VALUE": 0.12
  },
  {
    "MOL SMILES": "CC[C@H]1OC(=O)[C@H](C)[C@@H](O[C@H]2C[C@@](C)(OC)[C@@H](OC(=O)NNC(=O)c3ccc4[nH]c(-c5cccc(Cl)c5O)nc4c3)[C@H](C)O2)[C@H](C)[C@@H](O[C@@H]2O[C@H](C)C[C@H](N(C)C)[C@H]2O)[C@](C)(OC)C[C@@H](C)C(=O)[C@H](C)[C@@H](O)[C@]1(C)O",
    "METRIC NAME": "MIC",
    "MEAS VALUE": 0.5
  },
  {
    "MOL SMILES": "CC[C@H]1OC(=O)[C@H](C)[C@@H](O[C@H]2C[C@@](C)(OC)[C@@H](OC(=O)NNC(=O)c3ccc4[nH]c(-c5ccccc5)nc4c3)[C@H](C)O2)[C@H](C)[C@@H](O[C@@H]2O[C@H](C)C[C@H](N(C)C)[C@H]2O)[C@](C)(OC)C[C@@H](C)C(=O)[C@H](C)[C@@H](O)[C@]1(C)O",
    "METRIC NAME": "MIC",
    "MEAS VALUE": 0.25
  },
  {
    "MOL SMILES": "CC[C@H]1OC(=O)[C@H](C)[C@@H](O[C@H]2C[C@@](C)(OC)[C@@H](OC(=O)NNC(=O)c3ccc4[nH]c(-c5ccc(OC)cc5)nc4c3)[C@H](C)O2)[C@H](C)[C@@H](O[C@@H]2O[C@H](C)C[C@H](N(C)C)[C@H]2O)[C@](C)(OC)C[C@@H](C)C(=O)[C@H](C)[C@@H](O)[C@]1(C)O",
    "METRIC NAME": "MIC",
    "MEAS VALUE": 0.25
  },
  {
    "MOL SMILES": "CC[C@H]1OC(=O)[C@H](C)[C@@H](O[C@H]2C[C@@](C)(OC)[C@@H](OC(=O)NNC(=O)c3ccc4[nH]c(-c5ccccc5Cl)nc4c3)[C@H](C)O2)[C@H](C)[C@@H](O[C@@H]2O[C@H](C)C[C@H](N(C)C)[C@H]2O)[C@](C)(OC)C[C@@H](C)C(=O)[C@H](C)[C@@H](O)[C@]1(C)O",
    "METRIC NAME": "MIC",
    "MEAS VALUE": 0.06
  }
]
